Organism: Rattus norvegicus
experiment.description: Modulation of gamma-secretase in rat fetus primary neurons assessed as inhibition of amyloid beta42 production at 2.5 uM after 1 to 3 days by ELISA
Assign class by inhibition: not lower than 60% means Yes; lower than 60% means No.

Recorded results for 4 compounds are shown here.
compound | cat
COc1cc(C(=O)NC2CCN(Cc3cccc(C(F)(F)F)c3)C2)ccc1-n1cnc(C)c1 (stereo not given) | No
COc1cc(C(=O)N[C@H]2CCCN(C(=O)c3ccc(Br)cc3)C2)ccc1-n1cnc(C)c1 | Yes
COc1cc(C(=O)N[C@@H]2CCCN(Cc3ccc(C)cc3)C2)ccc1-n1cnc(C)c1 | No
CCN(C(=O)c1ccc(-n2cnc(C)c2)c(OC)c1)C1CCCN(Cc2cccc(C(F)(F)F)c2)C1 (stereo not given) | No

Problem: Has COc1cc(C(=O)NC2CCCN(Cc3ccccc3)C2)ccc1-n1cnc(C)c1 (racemic) a recorded inhibition greater than or equal to 60%?
Result: No

Problem: Determine whether this compound has inhibition no lower than 60%: COc1cc(C(=O)N(C(C)C)C2CCCN(Cc3cccc(C(F)(F)F)c3)C2)ccc1-n1cnc(C)c1 (stereo not given)
Result: No

Problem: Given COc1cc(C(=O)NC2CCN(Cc3cccc(C(F)(F)F)c3)CC2)ccc1-n1cnc(C)c1 , state whether its inhibition is at least 60%.
Result: Yes

Problem: Please tell me: is the compound COc1cc(C(=O)N2CCN(Cc3cccc(C(F)(F)F)c3)CC2)ccc1-n1cnc(C)c1 at or over 60% in terms of inhibition?
Result: No

Problem: Decide: inhibition of COc1cc(C(=O)N[C@@H]2CCCN(Cc3ccc(C(F)(F)F)cc3)C2)ccc1-n1cnc(C)c1 >= 60%?
Result: No

Problem: Does COc1cc(C(=O)N2CCC(NCc3cccc(C(F)(F)F)c3)C2)ccc1-n1cnc(C)c1 (stereo not given) have a reported inhibition of at least 60%?
Result: No
